# System: Escherichia coli TOP10
# Measurement Description: shrunken log2 fold change of peptide-encoding DNA abundance (4.5 h post-induction vs induction); higher = less antimicrobial activity (less host growth inhibition)
# Experimental Setup: time post-induction: 4.5 h; library: site-saturation at positions 5, 18, 19, 20
Classify as follows. Reported shrunken log2 fold change greater than or equal to -0.2: MET. Reported shrunken log2 fold change below: NOT MET.

Input Sequence: RRIRTRPPRLPRPRPRPFVEPRP
Class Label: NOT MET

Can `RRIRIRPPRLPRPRPRPWFKPRP` be said to have shrunken log2 fold change at or above -0.2?
NOT MET

// inclusive: shrunken log2 fold change at least -0.2? input: `RRIRGRPPRLPRPRPRPFSNPRP`
MET

In plain terms: is recorded shrunken log2 fold change at least -0.2 for `RRIRVRPPRLPRPRPRPTGSPRP` ?
MET

Does the sequence `RRIRKRPPRLPRPRPRPELIPRP` have recorded shrunken log2 fold change that is -0.2 or more?
MET

Given `RRIRCRPPRLPRPRPRPFVKPRP` , state whether its shrunken log2 fold change is at least -0.2.
NOT MET

Record `RRIRFRPPRLPRPRPRPLENPRP` ; criterion: shrunken log2 fold change no lower than -0.2. Met?
MET

API: above_or_equal(metric=shrunken log2 fold change, cutoff=-0.2) for item `RRIRIRPPRLPRPRPRPDTAPRP`
NOT MET

----------
Quick reference: shrunken log2 fold change of the listed items.
# Tested on: Escherichia coli TOP10;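 note: peptides expressed intracellularly from a pBAD plasmid library in pooled LB shake-flask culture, induced with 0.3% L-arabinose, DNA abundance read by NGS, three biological replicates, DESeq2 with apeglm shrinkage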
# Measurement Description: shrunken log2 fold change of peptide-encoding DNA abundance (4.5 h post-induction vs induction); higher = less antimicrobial activity (less host growth inhibition)
# Experimental Setup: time post-induction: 4.5 h; library: site-saturation at positions 5, 18, 19, 20
Respond using a number only.

Sample records with shrunken log2 fold change:
Input Sequence: RRIRRRPPRLPRPRPRPFFEPRP
Subject Of Test: Escherichia coli TOP10
shrunken log2 fold change: 0.18
//
Input Sequence: RRIRWRPPRLPRPRPRPMLKPRP
Subject Of Test: Escherichia coli TOP10
shrunken log2 fold change: -0.109
//
Input Sequence: RRIRGRPPRLPRPRPRPSYTPRP
Subject Of Test: Escherichia coli TOP10
shrunken log2 fold change: 0.307

Respond only with shrunken log2 fold change recorded for `RRIRERPPRLPRPRPRPQRMPRP`
-0.411

Return shrunken log2 fold change for the following sequence: `RRIRKRPPRLPRPRPRPINVPRP`
0.095

Supply shrunken log2 fold change value. Item: `RRIRWRPPRLPRPRPRPRASPRP`
0.852

Give the reported shrunken log2 fold change for this sequence. `RRIRQRPPRLPRPRPRPWDPPRP`
-0.327

Look up and state reported shrunken log2 fold change for `RRIRGRPPRLPRPRPRPTYIPRP`
0.111

Fill in reported shrunken log2 fold change for this entry: `RRIRYRPPRLPRPRPRPLKSPRP`
-0.365

Look up and state reported shrunken log2 fold change for `RRIRRRPPRLPRPRPRPCTSPRP`
0.0211

Provide only the value of recorded shrunken log2 fold change for `RRIRWRPPRLPRPRPRPWERPRP`
0.142

Kindly indicate its recorded shrunken log2 fold change. Item: `RRIRSRPPRLPRPRPRPLWVPRP`
0.0823

Please give measured shrunken log2 fold change of the following entry: `RRIRSRPPRLPRPRPRPPTLPRP`
0.0631

Write down shrunken log2 fold change measured for item `RRIRKRPPRLPRPRPRPNQDPRP`
-0.184

Provide only the value of recorded shrunken log2 fold change for `RRIRERPPRLPRPRPRPIDWPRP`
-0.0206
